The following molecules are shown together with reported Aqueous solubility values.
- test_summary: Aqueous solubility, shake flask in PBS buffer
- Type: physicochemical
- assay_setup: pH 7.2
- Description: 5-50 mg of compound was added to 500 μL of PBS buffer at pH 7.4. The pH was adjusted if necessary, using a 1M NaOH solution. The solutions were vortexed for 10 s, sonicated for 2 min and agitated with a horizontal shaker in a closed vial for 24 h. […] The concentration of each solution was determined with a calibration curve in 50:50 methanol/PBS buffer water. […]
observed_property: Aqueous solubility (µM)

- CCOC(=O)c1ncn2c1C1(CC1)N=C(c1ccccc1F)c1cc(Br)ccc1-2: 141
- O=C1Nc2ccc(Br)cc2C(c2ccccc2F)=NC12CC2: 321
- CC1(C)N=C(c2ccccc2F)c2cc(Br)ccc2NC1=O: 319
- CCC1N=C(c2ccccc2F)c2cc(Br)ccc2NC1=O (stereo not drawn): 397
- CCOC(=O)c1ncn2c1C1(CCCC1)N=C(c1ccccc1F)c1cc(Br)ccc1-2: 141
- CCOC(=O)c1ncn2c1C(C)(C)N=C(c1ccccc1F)c1cc(Br)ccc1-2: 103
- CCOC(=O)c1ncn2c1C1(CCC1)N=C(c1ccccc1F)c1cc(Br)ccc1-2: 144
- O=C1Nc2ccc(Cl)cc2C(c2ccccc2F)=NC12CC2: 39
- CCOC(=O)c1ncn2c1C1(CCCCC1)N=C(c1ccccc1F)c1cc(Br)ccc1-2: 54

---

- System: GABAA receptor
- test_summary: GABAA receptor binding, competition assay with [3H]-flunitrazepam and rat brain membranes
- assay_setup: 10 μM; [3H]-flunitrazepam, rat brain; Table 1
observed_property: % Inhibition at 10 μM

• O=C(O)c1ncn2c1C1(CC1)N=C(c1ccccc1F)c1cc(Br)ccc1-2 = 97.0%
• CC1(C)N=C(c2ccccc2F)c2cc(Br)ccc2-n2cnc(C(=O)O)c21 = 74.4%
• C#Cc1ccc2c(c1)C(c1ccccc1F)=NC1(CCCC1)c1c(C(=O)O)ncn1-2 = 0%
• O=C(O)c1ncn2c1C1(CCC1)N=C(c1ccccc1F)c1cc(Br)ccc1-2 = 59.4%
• O=C(O)c1ncn2c1C1(CCCC1)N=C(c1ccccc1F)c1ccccc1-2 = 4.7%
• O=C(O)c1ncn2c1C1(CCCC1)N=C(c1ccccc1F)c1cc(Cl)ccc1-2 = 47.8%
• O=C(O)c1ncn2c1C1(CCCCC1)N=C(c1ccccc1F)c1cc(Br)ccc1-2 = 1.9%
• O=C(O)c1ncn2c1C1(CCCC1)N=C(c1ccccc1F)c1cc(C3CC3)ccc1-2 = 31.4%
• O=C(O)c1ncn2c1C1(CCCC1)N=C(c1ccccc1F)c1cc(Br)ccc1-2 = 23.8%

---

- tested_on: GABAA receptor
- test_summary: GABAA receptor binding, competition assay with [3H]-flunitrazepam and rat brain membranes
- assay_setup: read-out: GABAAR binding (IC50); value in brackets; 3H-flunitrazepam, rat brain extract; Table 3, unit inferred
pIC50: −log10 of the molar value.
Parameter threshold = 6. Response is fulfilled when pIC50 meets or exceeds it, else not fulfilled.

- O=C1Nc2ccc(Br)cc2C(c2ccccc2F)=NC12CC2 [Compound 2]: fulfilled
- C#Cc1ccc2c(c1)C(c1ccccc1F)=NC1(CC1)c1c(C(=O)OCC)ncn1-2 [Compound 18]: fulfilled
- O=C(O)c1ncn2c1C1(CCC1)N=C(c1ccccc1F)c1cc(Br)ccc1-2 [Compound 27]: not fulfilled
- CCOC(=O)c1ncn2c1C1(CC1)N=C(c1ccccc1F)c1cc(Br)ccc1-2 [Compound 9]: fulfilled
- O=C(O)c1ncn2c1C1(CC1)N=C(c1ccccc1F)c1cc(C3CC3)ccc1-2 [Compound 24]: not fulfilled
- O=C(O)c1ncn2c1C1(CC1)N=C(c1ccccc1F)c1ccccc1-2 [Compound 32]: fulfilled
- CCOC(=O)c1ncn2c1C1(CCCC1)N=C(c1ccccc1F)c1cc(Br)ccc1-2 [Compound 12]: not fulfilled
- CCC1N=C(c2ccccc2F)c2cc(Br)ccc2NC1=O (stereo not drawn) [Compound 35]: fulfilled

---

- test_summary: in vitro
- assay_setup: PAMPA, pH 7.4
observed_property: Papp

- C#Cc1ccc2c(c1)C(c1ccccc1F)=NC1(CC1)c1c(C(=O)OCC)ncn1-2: 25.1 ×10⁻⁶ cm/s
- CCC1N=C(c2ccccc2F)c2cc(Br)ccc2NC1=O (centres unmarked): 2 ×10⁻⁶ cm/s

---

- System: GABAA receptor
- test_summary: GABAA receptor binding, competition assay with [3H]-flunitrazepam and rat brain membranes
- assay_setup: 10 μM; 3H-flunitrazepam, rat brain extract; Table 3
Recorded GABAAR binding, % inhibition at 10 μM determines the label; the label ranges are low-valued = under 70%, mid-valued = from 70% up to 90%, high-valued = 90% and over

- CCOC(=O)c1ncn2c1C(C)(C)N=C(c1ccccc1F)c1cc(Br)ccc1-2: mid-valued
- CCC1N=C(c2ccccc2F)c2cc(Br)ccc2NC1=O (stereo not shown): high-valued
- O=C(O)c1ncn2c1C1(CC1)N=C(c1ccccc1F)c1cc(C3CC3)ccc1-2: low-valued
- O=C(O)c1ncn2c1C1(CC1)N=C(c1ccccc1F)c1cc(Br)ccc1-2: high-valued
- O=C(O)c1ncn2c1C1(CC1)N=C(c1ccccc1F)c1ccccc1-2: mid-valued
- CC1(C)N=C(c2ccccc2F)c2cc(Br)ccc2-n2cnc(C(=O)O)c21: mid-valued
- CCOC(=O)c1ncn2c1C1(CCCC1)N=C(c1ccccc1F)c1cc(Br)ccc1-2: mid-valued
- CCOC(=O)c1ncn2c1C1(CC1)N=C(c1ccccc1F)c1cc(Br)ccc1-2: high-valued
- O=C(O)c1ncn2c1C1(CCC1)N=C(c1ccccc1F)c1cc(Br)ccc1-2: low-valued
- C#Cc1ccc2c(c1)C(c1ccccc1F)=NC1(CC1)c1c(C(=O)OCC)ncn1-2: low-valued
- C#Cc1ccc2c(c1)C(c1ccccc1F)=NC1(CC1)c1c(C(=O)O)ncn1-2: low-valued
- O=C1Nc2ccc(Br)cc2C(c2ccccc2F)=NC12CC2: high-valued

---

- assay_setup: parallel artificial membrane permeation assay at pH 7.4
observed_property: Permeability (log Pe (cm/s))

* CCOC(=O)c1ncn2c1C1(CCCC1)N=C(c1ccccc1F)c1cc(Br)ccc1-2 | −6.0
* O=C(O)c1ncn2c1C1(CCCC1)N=C(c1ccccc1F)c1cc(Br)ccc1-2 | −6.7
* CCOC(=O)c1ncn2c1C1(CCCCC1)N=C(c1ccccc1F)c1cc(Br)ccc1-2 | −5.6
* O=C(O)c1ncn2c1C1(CC1)N=C(c1ccccc1F)c1ccccc1-2 | −7.0

---

- test_summary: Aqueous solubility, shake flask in PBS buffer
- Assay type: physicochemical
- assay_setup: pH 7.2, cells marked b
The compounds listed here are annotated with their Aqueous solubility (footnote b: mM).
observed_property: Aqueous solubility (footnote b: mM)

• O=C(O)c1ncn2c1C1(CC1)N=C(c1ccccc1F)c1ccccc1-2 [Compound 32] = 15.1 ± 0.1 ^b mM
• O=C(O)c1ncn2c1C1(CCC1)N=C(c1ccccc1F)c1cc(Br)ccc1-2 [Compound 27] = 58.7 ± 4.4 ^b mM
• O=C(O)c1ncn2c1C1(CC1)N=C(c1ccccc1F)c1cc(C3CC3)ccc1-2 [Compound 24] = 12.8 ± 0.1 ^b mM
• C#Cc1ccc2c(c1)C(c1ccccc1F)=NC1(CC1)c1c(C(=O)O)ncn1-2 [Compound 20] = 40.3 ± 0.5 ^b mM
• O=C(O)c1ncn2c1C1(CC1)N=C(c1ccccc1F)c1cc(Cl)ccc1-2 [Compound 30] = 36.2 ± 0.4 ^b mM
• O=C(O)c1ncn2c1C1(CCCCC1)N=C(c1ccccc1F)c1cc(Br)ccc1-2 [Compound 29] = 46.9 ± 1.3 ^b mM
• O=C(O)c1ncn2c1C1(CCCC1)N=C(c1ccccc1F)c1cc(Br)ccc1-2 [Compound 28] = 46.7 ± 0.6 ^b mM

---

- assay_setup: parallel artificial membrane permeation assay at pH 7.4
observed_property: Permeability (log Pe (cm/s))

- O=C(O)c1ncn2c1C1(CC1)N=C(c1ccccc1F)c1cc(Cl)ccc1-2: −6.6
- O=C1Nc2ccc(Cl)cc2C(c2ccccc2F)=NC12CC2: −5.2
- O=C(O)c1ncn2c1C1(CC1)N=C(c1ccccc1F)c1cc(C3CC3)ccc1-2: −6.4
- O=C(O)c1ncn2c1C1(CCCCC1)N=C(c1ccccc1F)c1cc(Br)ccc1-2: −6.6
- CCOC(=O)c1ncn2c1C1(CC1)N=C(c1ccccc1F)c1cc(Br)ccc1-2: −5.1

---

// values below are reported pIC50
- tested_on: GABAA receptor
- test_summary: GABAA receptor binding, competition assay with [3H]-flunitrazepam and rat brain membranes
- assay_setup: read-out: GABAAR binding (IC50); value in brackets; 3H-flunitrazepam, rat brain extract; Table 3, unit inferred
pIC50: −log10 of the molar value.
observed_property: pIC50

- O=C(O)c1ncn2c1C1(CC1)N=C(c1ccccc1F)c1cc(Br)ccc1-2: 8.05
- C#Cc1ccc2c(c1)C(c1ccccc1F)=NC1(CC1)c1c(C(=O)O)ncn1-2: 7.23
- CCOC(=O)c1ncn2c1C(C)(C)N=C(c1ccccc1F)c1cc(Br)ccc1-2: 6.13
- CC1(C)N=C(c2ccccc2F)c2cc(Br)ccc2NC1=O: 5.90
- CC1(C)N=C(c2ccccc2F)c2cc(Br)ccc2-n2cnc(C(=O)O)c21: 5.39
